biological target: UniProt:P43351; type: functional, biochemical
Sequence (P43351 whole entry): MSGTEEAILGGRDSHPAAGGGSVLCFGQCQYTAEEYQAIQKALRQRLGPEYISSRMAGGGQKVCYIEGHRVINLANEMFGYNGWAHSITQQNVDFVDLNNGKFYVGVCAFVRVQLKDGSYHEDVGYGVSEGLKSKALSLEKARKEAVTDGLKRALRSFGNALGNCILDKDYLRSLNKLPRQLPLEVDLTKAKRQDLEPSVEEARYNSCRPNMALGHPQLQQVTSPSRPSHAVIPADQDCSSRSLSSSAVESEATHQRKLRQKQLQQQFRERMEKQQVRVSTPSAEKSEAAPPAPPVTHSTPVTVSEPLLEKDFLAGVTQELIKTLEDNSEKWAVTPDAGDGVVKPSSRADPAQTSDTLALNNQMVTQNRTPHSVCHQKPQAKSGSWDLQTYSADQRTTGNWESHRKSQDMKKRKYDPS
The source made the active and inactive calls.
// reported AC50 for each item listed

Task: Need AC50 of COc1cc2cc(-c3ccc(OC)c(OC)c3C)nc(N)c2cc1OC , thanks.
Result: 12.4 µM (active)

Task: Need AC50 of CN(C)CCN(C)Cc1ccccc1Sc1cccc2ccccc12 , thanks.
Result: 11.2 µM (active)

Task: Need AC50 of COc1ccc(N=C(S)NC23CN4CN(CN(C4)C2)C3)c(OC)c1 , thanks.
Result: 16.3 µM (active)

Task: Need AC50 of N#Cc1cc2cc3c(cc2nc1NCCNC(=S)NCCCN1CCOCC1)OCO3 , thanks.
Result: 14.1 µM (active)

Task: Need AC50 of CN1CCN(c2cc(-c3cc(O)c4ncccc4c3)ccn2)CC1 , thanks.
Result: 1.58 µM (active)

Task: Need AC50 of COc1ccc(N)cc1NC(=O)CN1CCCC1 , thanks.
Result: 9.95 µM (active)

----------
target: RNA-binding protein pos-1 (Caenorhabditis elegans, UniProt G5EF15); test: inhibitors of POS-1/mex-3 RNA binding, dose response, biochemical, fluorescence polarization (AID 1964);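 note: purified POS-1 fused to maltose binding protein made in E. coli; potency of compounds blocking POS-1 binding to fluorescent RNA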
Sequence (G5EF15 whole entry, the tested form may be a part): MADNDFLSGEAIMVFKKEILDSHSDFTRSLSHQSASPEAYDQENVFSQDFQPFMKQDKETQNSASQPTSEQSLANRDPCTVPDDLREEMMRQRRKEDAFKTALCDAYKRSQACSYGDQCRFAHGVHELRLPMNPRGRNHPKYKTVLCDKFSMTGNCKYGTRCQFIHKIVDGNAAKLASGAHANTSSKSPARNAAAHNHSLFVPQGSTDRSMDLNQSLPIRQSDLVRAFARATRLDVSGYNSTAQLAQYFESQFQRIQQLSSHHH
Calls of active or inactive are those of the source.
// reported EC50 for each item listed

Consider the following illustrative entries.
entrySmiles	reading
NC(=O)c1ccsc1N	10.9 µM (active)
Cc1cc(C(=O)N/N=C/c2cc(Cl)cc([N+](=O)[O-])c2O)[nH]n1	> 300 µM (not active)
Cc1ccccc1N=Nc1c(O)n(C)c2ccccc12	> 300 µM (not active)

Task: Need EC50 of c1coc(-c2nc3ccccc3nc2-c2ccco2)c1 , thanks.
Result: 21.6 µM (active)

Task: Need EC50 of Nc1cccc2c1C(=O)N(c1ccccc1)C2=O , thanks.
Result: 17 µM (active)

Task: Need EC50 of COC(=O)c1ccc(-n2c(C)ccc2-c2ccccc2)cc1 , thanks.
Result: > 300 µM (not active)

Task: Need EC50 of Oc1cccc(/C=N/N=C/c2cccc(O)c2O)c1O , thanks.
Result: 42.9 µM (active)

Task: Need EC50 of Cc1ccc(NNC2=C3N=NN=C3C=CC2=O)cc1 , thanks.
Result: 22.4 µM (active)

Task: Need EC50 of CCOC(=O)N1CCN(C(=O)c2ccc3c(c2)NC(=O)/C(=C\c2ccc(OC)c(OC)c2)S3)CC1 , thanks.
Result: > 300 µM (not active)

----------
target: Caspase-3 (Homo sapiens, UniProt P42574); type: functional;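 note: Dose-response selectivity test against caspase-3 for candidate inhibitors of sentrin-specific proteases (SENPs)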
Sequence (P42574 29-175 limits assumed): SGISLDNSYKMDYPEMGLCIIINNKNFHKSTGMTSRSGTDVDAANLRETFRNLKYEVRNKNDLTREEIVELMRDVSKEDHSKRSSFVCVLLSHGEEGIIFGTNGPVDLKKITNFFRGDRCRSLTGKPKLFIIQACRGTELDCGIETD
Sequence (P42574 176-277 limits assumed): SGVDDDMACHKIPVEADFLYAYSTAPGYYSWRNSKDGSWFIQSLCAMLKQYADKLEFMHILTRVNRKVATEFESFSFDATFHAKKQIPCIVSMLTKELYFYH
Calls of active or inactive are those of the source.
// reported IC50 for each item listed

Consider the following illustrative entries.
entrySmiles	IC50
Nn1c(SCc2ccccc2)nc2c(cnn2-c2ccccc2)c1=O	36.1 µM (active)
Clc1ccc(C2=CSC3=Nc4cccc5cccc(c45)N23)cc1	7.93 µM (active)
Nc1c(C(=O)Nc2cccc(C(=O)O)c2)sc2nc3c(cc12)CCCC3	71.6 µM (active)

Shift focus to the following entry.
Task: Given the entry O=C(Cn1cc(SCc2ccc(F)cc2)c2ccccc21)N1CCOCC1 , what IC50 was observed with Caspase-3 (Homo sapiens, UniProt P42574)?
Result: 21.1 µM (active)

----------
target: UniProt O96028; type: biochemical
Sequence (O96028 whole entry): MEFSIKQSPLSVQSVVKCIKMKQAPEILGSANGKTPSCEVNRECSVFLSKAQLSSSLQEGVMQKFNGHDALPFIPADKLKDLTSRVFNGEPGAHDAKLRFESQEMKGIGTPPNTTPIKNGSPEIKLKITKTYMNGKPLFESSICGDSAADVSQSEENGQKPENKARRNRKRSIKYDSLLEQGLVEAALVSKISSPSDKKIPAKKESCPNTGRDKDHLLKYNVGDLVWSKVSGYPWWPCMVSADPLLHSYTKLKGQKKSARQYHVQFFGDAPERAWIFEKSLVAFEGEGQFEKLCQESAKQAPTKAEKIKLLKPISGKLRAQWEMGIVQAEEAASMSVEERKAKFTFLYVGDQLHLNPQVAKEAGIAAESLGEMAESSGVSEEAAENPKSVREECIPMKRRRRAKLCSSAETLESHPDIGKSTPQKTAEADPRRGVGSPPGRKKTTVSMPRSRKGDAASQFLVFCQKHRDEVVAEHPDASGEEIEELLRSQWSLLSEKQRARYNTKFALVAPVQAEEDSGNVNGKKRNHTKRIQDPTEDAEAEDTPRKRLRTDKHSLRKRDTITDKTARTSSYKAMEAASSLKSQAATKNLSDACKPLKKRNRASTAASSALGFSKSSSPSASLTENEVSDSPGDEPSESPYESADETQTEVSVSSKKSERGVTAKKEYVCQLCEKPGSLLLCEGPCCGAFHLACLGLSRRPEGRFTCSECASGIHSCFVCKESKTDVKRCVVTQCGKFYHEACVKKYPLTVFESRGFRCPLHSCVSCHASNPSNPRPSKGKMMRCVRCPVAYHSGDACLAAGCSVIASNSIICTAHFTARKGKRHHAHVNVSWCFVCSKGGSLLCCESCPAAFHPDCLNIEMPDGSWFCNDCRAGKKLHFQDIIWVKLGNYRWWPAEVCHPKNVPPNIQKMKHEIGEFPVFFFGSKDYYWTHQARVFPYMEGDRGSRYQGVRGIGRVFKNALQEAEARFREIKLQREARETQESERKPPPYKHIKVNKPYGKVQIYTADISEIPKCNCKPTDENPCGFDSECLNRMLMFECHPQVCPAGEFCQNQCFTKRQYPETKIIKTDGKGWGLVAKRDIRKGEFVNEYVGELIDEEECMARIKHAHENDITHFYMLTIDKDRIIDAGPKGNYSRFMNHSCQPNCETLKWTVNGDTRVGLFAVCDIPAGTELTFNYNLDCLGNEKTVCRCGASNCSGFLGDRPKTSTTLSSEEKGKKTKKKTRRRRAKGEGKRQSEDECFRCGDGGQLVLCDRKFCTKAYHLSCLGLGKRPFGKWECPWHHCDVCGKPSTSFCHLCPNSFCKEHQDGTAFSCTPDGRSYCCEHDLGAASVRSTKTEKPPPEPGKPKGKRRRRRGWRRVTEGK
Calls of active or inactive are those of the source.
Respond using exactly one of the listed classes: y (active), n (inactive)

entrySmiles	qualitativeLabel
CCCCN(CC)CCNC(=O)c1ccc2c(Cl)c3c(nc2c1)CCC3	n
Cc1ccccc1C1=C/C(=C(\SS/C(C(=O)c2ccc(OCC(=O)O)c(Cl)c2Cl)=C2\C=C(c3ccccc3C)SS2)C(=O)c2ccc(OCC(=O)O)c(Cl)c2Cl)SS1	y
CN1C(=O)/C(=C/c2ccc(-c3ccccc3[N+](=O)[O-])o2)S/C1=N\c1ccc(Cl)c(C(=O)O)c1	y
COc1ccc(C)cc1NCc1ccc(OC)c(C)c1OC	n

Task: Any idea what this test logged for Oc1ccc(/C=N/Nc2cc(N3CCOCC3)nc(N3CCOCC3)n2)cc1O ?
Result: y

Task: Any idea what this test logged for COc1ccc(S(=O)(=O)N2CCCCC2)cc1NC(=O)Cc1ccsc1 ?
Result: y

Task: Any idea what this test logged for O=C(c1coc(=O)c(Br)c1)N1CCCc2ccccc21 ?
Result: y
